test_name: NCI Yeast Anticancer Drug Screen. Data for the cln2 rad14 strain (AID 165);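 also: 0% = growth equal to vehicle treated cultures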
condition_info: S. cerevisiae cln2 rad14 strain, at 50.0 µM (retest, dose inferred, filed as 5.0), active compounds read high
Compounds without any hit were thinned out: in the full panel of roughly 79,000, 15% have a hit.
Threshold rule: growth inhibition greater than or equal to 10% is label 1; below that, label 0.

Task item: Textbook exercise: given the entry Cc1nc2c(Cl)cccc2c2ccccc12 , state whether its growth inhibition is greater than or equal to 10%.
Reply: label 1

Task item: Now give it for CC1C2CC(C(S(=O)(=O)N3CCOCC3)/C2=N\O)C1(C)C (stereo unspecified) too.
Reply: label 1

Task item: Now give it for Cc1cc([N+](=O)[O-])c2nnnn2c1 too.
Reply: label 0

Task item: Now give it for Cc1ccc(NC(=O)CSC(N)=O)cc1C too.
Reply: label 0

Task item: Now give it for O=[N+]([O-])/C(=C\c1cccs1)c1ccccc1 too.
Reply: label 1
